system: NCI-H23 lung; test: NCI tumour cell line growth inhibition, 48 h
METRIC: TGI

Incoming: Endpoint output: TGI of O=C(NC[C@H](O)CN1CCc2ccccc2C1)c1cc(NC2COC2)ncn1 . Value?
Outgoing: > 100 µM

Incoming: Also O=C1N=C2Sc3ccc4ccccc4c3N2C1=O ?
Outgoing: 53.3 µM

Incoming: Also COc1ccc(-c2ccc(=O)oc2C#Cc2cc(OC)c(OC)c(OC)c2)cc1O ?
Outgoing: > 100 µM

Incoming: Also C/C(N=NC(=S)N1CC2CCC(CC2)C1)=C1\C=CC=CN1O ?
Outgoing: > 100 µM

Incoming: Also COC(=O)/C(=C/c1ccc(OC)cc1)C(C(=O)O)=C1CCCC1 ?
Outgoing: > 100 µM

Incoming: Also CC1CC2CCCC(O)=C2C(=O)O1 (stereo not given) ?
Outgoing: > 100 µM

Incoming: Also CCN(CC)CCNc1nc(N)c(C#N)c(C#N)c1C#N ?
Outgoing: > 10 µM

Incoming: Also CC(=NNC(=S)Nc1ccccc1)c1cccc(C(C)=NNC(=S)Nc2ccccc2)n1 ?
Outgoing: > 100 µM

Incoming: Also O=C(O)C(Cl)(Cl)Cl ?
Outgoing: > 100 µM

Incoming: Also C=C1C(=O)CC2C1CC(=O)/C(C)=C/CCC(C)(O)C2O (stereo not given) ?
Outgoing: 20.6 µM

Incoming: Also Cc1c(/C=N\NC(=S)NCCNC(=S)N/N=C\c2c(C)n(C)n(-c3ccccc3)c2=O)c(=O)n(-c2ccccc2)n1C ?
Outgoing: > 100 µM

Incoming: Also O=C1c2cc(-c3ccccc3)cnc2S(=O)(=O)N1c1ccc(Br)cc1 ?
Outgoing: > 100 µM

Incoming: Also O=c1[nH][nH]c(=O)n1CCCCCCn1c(=O)[nH][nH]c1=O ?
Outgoing: > 100 µM

Incoming: Also O=S(=O)(O)C(CO)c1ccccc1 (stereo not given) (tested in a mixture with another compound) ?
Outgoing: > 100 µM

Incoming: Also c1ccc2c(OCCSCCCCCCCCCCSCCOc3cccc4ccccc34)cccc2c1 ?
Outgoing: > 100 µM

Incoming: Also C/C(=N\N=C1/C(=O)OC(c2ccccc2)=C1C(=O)c1ccccc1)c1ccc([N+](=O)[O-])cc1 ?
Outgoing: > 100 µM

Incoming: Also Cc1cc(N[C@@H]2CCC[C@H](Nc3ccnc4cc(Cl)ccc34)C2)nc(N2CCCCCC2)n1 ?
Outgoing: 5.43 µM

Incoming: Also COC(=O)c1c2c(c(C)[n+]([O-])c1C)C(=O)C=C(NCc1ccc(F)cc1)C2=O ?
Outgoing: 3.41 µM

Incoming: Also O=C(OC1CCC(=C2SCCCS2)[C@H]1C1SCCCS1)c1ccccc1 (stereo not given in full) ?
Outgoing: > 100 µM

Incoming: Also N#CC(C#N)=C1SC(=Nc2ccccc2)C(=Nc2ccccc2)N1c1ccccc1 ?
Outgoing: 97.7 µM

Incoming: Also C=CCn1c(=O)c(C(=O)Nc2nc(C34CC5CC(CC(C5)C3)C4)cs2)c(O)c2ccccc21 ?
Outgoing: > 100 µM

Incoming: Also CC(C)C1=Cc2ccc3c(c2C(=O)C1=O)CCCC3(C)C ?
Outgoing: 29.6 µM

Incoming: Also CCOC(=O)c1c(-c2ccc(O)c(OC)c2)c(C#N)c(=S)n(C2OC(CO)C(O)C(O)C2O)c1-c1ccccc1 (stereo not given) ?
Outgoing: > 100 µM

Incoming: Also COc1cc(O)c2c(c1)C(=O)c1cc3c(c(O)c1C2=O)C(OC1OC(C)C(OC)C(O)C1OC)C(OC)C(C)(O)C3=O (stereo not given) ?
Outgoing: 23.2 µM

Incoming: Also COC(=O)C(Cc1ccc2c(c1)CCC2)Cc1ccc2c(c1)CCC2 ?
Outgoing: > 100 µM

Incoming: Also NC1CCN(Cc2ccccc2)CC1 ?
Outgoing: > 100 µM

Incoming: Also O=C(/C=C/c1ccccc1)Oc1ccc(C(=O)/C=C/c2ccccc2)cc1 ?
Outgoing: 22.4 µM

Incoming: Also O=C(O)COc1ccccc1C(=O)Nc1ccccc1 ?
Outgoing: > 100 µM

Incoming: Also COc1cc(N=Nc2ccc(O)c3ncccc23)c2ncccc2c1 ?
Outgoing: > 100 µM

Incoming: Also Cc1cccc(C)c1NC(=O)C(Cc1c[nH]c2ccccc12)NC(=O)OCc1ccccc1 (stereo not given) ?
Outgoing: 70.8 µM

Incoming: Also O=C1CCC(c2ccccc2)=NN1c1nsc2ccccc12 ?
Outgoing: > 100 µM

Incoming: Also CSc1cc(-c2cccs2)sc1-c1cc(SC)c(-c2sc(-c3sc(-c4cccs4)cc3SC)cc2SC)s1 ?
Outgoing: > 100 µM

Incoming: Also COc1cc(N(CCC#N)CCC#N)ccc1/C(N=Nc1ccc(Cl)cc1)=N/NC(=O)c1cc(Br)ccc1O ?
Outgoing: > 150 µg/mL

Incoming: Also CCOC(=O)Nc1cc2c(c(N)n1)N=C(c1ccccc1)CO2 ?
Outgoing: 21.4 µM

Incoming: Also Nc1ccc(N=Nc2c(S(=O)(=O)O)cc3ccccc3c2S(=O)(=O)O)cc1 ?
Outgoing: > 100 µM
